This listing pairs molecules with measured MIC.
# Test system: Enterococcus faecalis
# METHOD NOTES: Antimicrobial activity against daptomycin-resistant Enterococcus faecalis ATCC 49452 incubated anaerobically at 37 degC for 48 hrs by agar dilution method
# Format: functional
# PARTICULARS: ATCC 49452, 48 h
Answer format: numeric, µg/mL implied, no suffix.

MOLECULE	UNITS TEXT	RECORDED RESULT
CCCCCCCc1csc(C(=O)N[C@@H](Cc2c[nH]c3ccccc23)C(=O)N[C@@H](CC(N)=O)C(=O)N[C@@H](CC(=O)O)C(=O)N[C@@H]2C(=O)NCC(=O)N[C@@H](CCCN)C(=O)N[C@H](CC(=O)O)C(=O)N[C@H](C)C(=O)N[C@@H](CC(=O)O)C(=O)NCC(=O)N[C@H](CO)C(=O)N[C@@H]([C@@H](C)CC(=O)O)C(=O)N[C@@H](CC(=O)c3ccccc3N)C(=O)O[C@@H]2C)c1	µg/mL	32

Prompt: MIC for CCCCCCCCCCCCC(=O)N[C@@H](Cc1c[nH]c2ccccc12)C(=O)N[C@@H](CC(N)=O)C(=O)N[C@@H](CC(=O)O)C(=O)N[C@@H]1C(=O)NCC(=O)N[C@@H](CCCN)C(=O)NC(CC(=O)O)C(=O)N[C@H](C)C(=O)N[C@@H](CC(=O)O)C(=O)NCC(=O)N[C@H](CO)C(=O)N[C@@H]([C@@H](C)CC(=O)O)C(=O)N[C@@H](CC(=O)c2ccccc2N)C(=O)O[C@@H]1C (single isomer, unassigned) ?
Completion: 8
